# Lookup of reported SPOT intensity keyed by entry
- System Tested: T1, Lsb4, P32793
- T1 sequence (P32793 402-468, looked up): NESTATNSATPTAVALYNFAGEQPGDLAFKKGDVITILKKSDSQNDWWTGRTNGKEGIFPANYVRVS
- Test Protocol: SPOT array
- Measurement Parameters: median of control spots 397
Observed Property: SPOT intensity

• NRLRKRLNLPSEISI = 0
• QPPLPSSAPPIPTSH = 0
• SSAAPPPPPRRATPE = 965
• NLDRSKISLPDFDDE = 5
• NGRRRPKFRVQLSGN = 9
• GDHPKGPPPPPPPDE = 0
• RKNRAPPQRPRFNRE = 49
• MSPLGAPPPPPHKDH = 0
• IVNKPLPPLPVAGSS = 0
• PSPSSSPPPIPKTAN = 0
• NPLPKEPRLPKRKVA = 288
• RLSRLLLSLPPESFT = 3
• HKVLRPFLLRRLKKD = 0
• RRLRDKYKLPIVDAD = 0
• VLRFLGFPLPIFEKG = 0
